study-target: T1, TNF-α (UniProt P01375 77-233, limits assumed)
T1 construct: also called tumor necrosis factor; ligand
method-description: competition ELISA: sample vs plate-bound TNFRI190 for TNF-α, from IC50, relative to wild-type TNFRI171
Relative Affinity for Ligand (%) by entry:
# number only, unit % dropped from output

Use these answered entries as a reference point.
{"binder": "TNFRI171-S56 (receptor, Met-TNFRI171 superlead mutant made in E. coli) MDSVCPQGKYIHPQNNSICCTKCHKGTYVYNDCPGPGQDTDCRECESGSFTAMENFLPACLSCSKCRKEMGQVEISSCTVDRDTVCGCRKNQYRHYWSENLFQCFNCSLCLNGTVHLSCQEQQNTVCTCHAGFFLRENECVSCSNCKKSLECTKLCLPQIENVKGTEDSGTT", "measured": 510}
{"binder": "TNFRI171-S49 (receptor, Met-TNFRI171 superlead mutant made in E. coli) MDSVCPQGKYIHPQNNSICCTKCHKGTYLYNDCPGPGQDTDCRECESGSFTAIPNFLPGCLSCSKCRKEMGQVEISSCTVDRDTVCGCRKNQYRHYWSENLFQCFNCSLCLNGTVHLSCQEQQNTVCTCHAGFFLRENECVSCSNCKKSLECTKLCLPQIENVKGTEDSGTT", "measured": 547}
{"binder": "TNFRI171-S55 (receptor, Met-TNFRI171 superlead mutant made in E. coli) MDSVCPQGKYIHPQNNSICCTKCHKGTYVYNDCPGPGQDTDCRECESGSFTAIENFLPACLSCSKCRKEMGQVEISSCTVDRDTVCGCRKNQYRHYWSENLFQCFNCSLCLNGTVHLSCQEKQNTVCTCHAGFFLRENECVSCSNCKKSLECTKLCLPQIENVKGTENSGTT", "measured": 973}
{"binder": "TNFRI171-S54 (receptor, Met-TNFRI171 superlead mutant made in E. coli) MDSVCPQGKYIHPQNNSICCTKCHKGTYVYNDCPGPGQDTDCRECESGSFTAIENFLPACLSCSKCRKEMGQVEISSCTVDRDTVCGCRKNQYRHYWSENLFQCFNCSLCLNGTVHLSCQENQNTVCTCHAGFFLRENECVSCSNCKKSLECTKLCLPQIENVKGTEDSGTT", "measured": 900}
{"binder": "TNFRI171-S50 (receptor, Met-TNFRI171 superlead mutant made in E. coli) MDSVCPQGKYIHPQNNSICCTKCHKGTYLYNDCPGPGQDTDCRECESGSFTAIPNFLPGCLSCSKCRKEMGQVEISSCTVDRDTVCGCRKNQYRHYWSENLFQCFNCSLCLNGTVHLSCQENQNTVCTCHAGFFLRENECVSCSNCKKSLECTKLCLPQIENVKGTEDSGTT", "measured": 589}

Name the recorded Relative Affinity for Ligand (%) for TNFRI171-S41 (receptor, Met-TNFRI171 superlead mutant made in E. coli) MDSVCPQGKYIHPQNNSICCTKCHKGTYVYNDCPGPGQDTDCRECESGSFTAHENFLPACLSCSKCRKEMGQVEISSCTVDRDTVCGCRKNQYRHYWSENLFQCFNCSLCLNGTVHLSCQEKQNTVCTCHAGFFLRENECVSCSNCKKSLECTKLCLPQIENVKGTEDSGTT .
558

Name the recorded Relative Affinity for Ligand (%) for TNFRI171-S43 (receptor, Met-TNFRI171 superlead mutant made in E. coli) MDSVCPQGKYIHPQNNSICCTKCHKGTYLYNDCPGPGQDTDCRECESGSFTAHENFLPACLSCSKCRKEMGQVEISSCTVDRDTVCGCRKNQYRHYWSENLFQCFNCSLCLNGTVHLSCQENQNTVCTCHAGFFLRENECVSCSNCKKSLECTKLCLPQIENVKGTEDSGTT .
579

Name the recorded Relative Affinity for Ligand (%) for TNFRI171-S48 (receptor, Met-TNFRI171 superlead mutant made in E. coli) MDSVCPQGKYIHPQNNSICCTKCHKGTYVYNDCPGPGQDTDCRECESGSFTAIPNFLPGCLSCSKCRKEMGQVEISSCTVDRDTVCGCRKNQYRHYWSENLFQCFNCSLCLNGTVHLSCQEKQNTVCTCHAGFFLRENECVSCSNCKKSLECTKLCLPQIENVKGTEDSGTT .
594

Name the recorded Relative Affinity for Ligand (%) for TNFRI171-S62 (receptor, Met-TNFRI171 superlead mutant made in E. coli) MDSVCPQGKYIHPQNNSICCTKCHKGTYVYNDCPGPGQDTDCRECESGSFTAIENFLPGCLSCSKCRKEMGQVEISSCTVDRDTVCGCRKNQYRHYWSENLFQCFNCSLCLNGTVHLSCQEQQNTVCTCHAGFFLRENECVSCSNCKKSLECTKLCLPQIENVKGTEDSGTT .
1200
